This collection of values is drawn from patent US11021444B2.

Test: Cytotoxicity Determination (CCK-8, without addition of virus)
Assay type: cell-based
Details: human, 50% cytotoxicity concentration (CC50)
Measure name: CC50 at 5 days

**Query** Query: CC50 at 5 days; subject: "COc1cc(C(=O)NC[C@](O)(c2cc(C(C)(C)N)cc(-c3ccc(F)cc3)n2)C(F)(F)F)ccc1OC[C@@H](C)O"
**Result** 10 to 100 µM

**Query** Can you check COc1cc(C(=O)NCC(O)(c2cc(C(C)(C)N)cc(-c3ccc(F)cc3)n2)C(F)(F)F)ccc1OCC(N)=O (stereo not shown) next?
**Result** > 100 µM

**Query** Can you check COc1cc(C(=O)NCC(C)(O)c2cc3c(c(-c4ccc(F)c(Cl)c4)n2)NCC3)ccc1OCCF (stereo not shown) [Compound 286] next?
**Result** 10 to 100 µM

**Query** Can you check "COc1cc(C(=O)NCC(=O)c2cc3c(c(-c4ccc(F)c(Cl)c4)n2)OCCC3)ccc1OCCF" next?
**Result** > 100 µM

====

Can you tell me EC50 for the items I'm about to list?
Test system: Respiratory Syncytial Virus (RSV) long strain
Test: microbe, parasite or virus in culture
Assay type: cell-based
Details: human respiratory syncytial virus, HEp-2, 120 h, read-out: 50% effective concentration (EC50), HEp-2 cells infected with RSV long strain, 5 days, CCK-8 readout; Tables A and B list compounds by EC50 band

**Query** Query: EC50; subject: COc1cc(C(=O)NC[C@@](O)(c2cc3c(c(-c4ccc(F)cc4)n2)OCC3(C)CN)C(F)(F)F)ccc1OCCO (stereo partly shown) [Compound 633a]
**Result** 1000 to 50000 nM

**Query** Can you check COc1cc(C(=O)NCC(=O)c2cc3c(c(-c4ccc(F)c(Cl)c4)n2)OCC3)ccc1OCCF [Compound 135] next?
**Result** < 1000 nM

**Query** Can you check COc1cc(C(=O)NCC(O)(c2cc(C(N)CO)cc(-c3ccc(F)cc3)n2)C(F)(F)F)ccc1OC1CC1 (stereo not shown) [Compound 529] next?
**Result** < 1000 nM

**Query** Can you check COc1cc(C(=O)NCC(O)(c2cc(C(C)(N)CF)cc(-c3ccc(F)c(Cl)c3)n2)C(F)(F)F)ccc1OC1CC1 (stereo not shown) [Compound 534] next?
**Result** < 1000 nM

====

Assay: Cytotoxicity Determination (CCK-8, without addition of virus)
Format: cell-based
Conditions: human, 50% cytotoxicity concentration (CC50)
Measure name: CC50 at 5 days

**Query** Query: CC50 at 5 days; subject: COc1cc(C(=O)NCC(C)(O)c2cc3c(c(-c4ccc(F)c(Cl)c4)n2)NCC3)ccc1OCCF (single isomer, unassigned) [Compound 294]
**Result** > 100 µM

**Query** Can you check COc1cc(C(=O)NCC(N)(c2ccc(OC)c(-c3ccc(F)c(Cl)c3)n2)C(F)F)ccc1OC1CC1 (stereo not shown) [Compound 517] next?
**Result** 10 to 100 µM

**Query** Can you check COc1cc(C(=O)NCC(O)(c2cc(C(C)(C)N)cc(-c3ccnc(Cl)c3)n2)C(F)(F)F)ccc1OC1CC1 (stereo not shown) [Compound 558] next?
**Result** 10 to 100 µM

**Query** Can you check COc1cc(C(=O)NC[C@](O)(c2cc3c(c(-c4ccc(F)cc4)n2)OC[C@]3(C)N)C(F)(F)F)ccc1OC[C@@H](C)O [Compound 631] next?
**Result** 10 to 100 µM

**Query** Can you check COc1cc(C(=O)NCC(O)(c2cc3c(c(-c4ccc(F)cc4)n2)OCC3(C)N)C(F)(F)F)ccc1OCC(N)=O (stereo not shown) [Compound 543] next?
**Result** 10 to 100 µM

**Query** Can you check COc1cc(C(=O)NCC(=O)c2cc3c(C)coc3c(-c3ccc(F)c(Cl)c3)n2)ccc1OC1CC1 [Compound 474] next?
**Result** > 100 µM

**Query** Can you check COc1ccc(C(O)(CNC(=O)c2ccc(OCC(N)=O)c(Cl)c2)C(F)(F)F)nc1-c1ccc(F)c(Cl)c1 (stereo not shown) [Compound 237] next?
**Result** 10 to 100 µM

**Query** Can you check COc1cc(C(=O)NCC(O)(CN2CCC2)c2ccc(OC)c(-c3ccc(F)c(Cl)c3)n2)ccc1OC1CC1 (stereo not shown) [Compound 462] next?
**Result** 10 to 100 µM

**Query** Can you check COc1cc(C(=O)NCC(O)(CN)c2ccc(OC)c(-c3ccc(F)c(Cl)c3)n2)ccc1OCCO (stereo not shown) [Compound 179] next?
**Result** > 100 µM

**Query** Can you check COc1ccc(C(O)(CO)CNC(=O)c2ccc(OC3CCNC3=O)c(Cl)c2)nc1-c1ccc(F)c(Cl)c1 (stereo not shown) [Compound 452] next?
**Result** 10 to 100 µM

**Query** Can you check COc1cc(C(=O)NCC(O)(c2ccc(OC)c(-c3ccc(F)c(Cl)c3)n2)C(F)(F)F)ccc1OC1CC(F)(F)C1 (stereo not shown) [Compound 244] next?
**Result** > 100 µM

**Query** Can you check COc1cc(C(=O)NCC(O)(c2ccc(OC)c(-c3ccc(F)c(Cl)c3)n2)C(C)(C)C)ccc1OCCF (stereo not shown) [Compound 313] next?
**Result** 10 to 100 µM

**Query** Can you check COc1ccc(C(O)(CNC(=O)c2ccc(OCCO)c(Cl)c2)C(F)(F)F)nc1-c1ccc(F)c(Cl)c1 (stereo not shown) [Compound 262] next?
**Result** 10 to 100 µM

**Query** Can you check COc1cc(C(=O)NCC(C)(O)c2cc3c(c(-c4ccc(F)c(Cl)c4)n2)OCC3(C)C)ccc1OCCO (racemic) [Compound 166] next?
**Result** 10 to 100 µM

**Query** Can you check CC(C)(N)c1cc(-c2ccc(F)c(Cl)c2)nc(C(O)(CNC(=O)c2cncs2)C(F)(F)F)c1 (stereo not shown) [Compound 278] next?
**Result** 10 to 100 µM

**Query** Can you check Cc1ncc(C(=O)NCC(O)(c2cc(C(C)(C)N)cc(-c3ccc(F)cc3)n2)C(F)(F)F)[nH]1 (stereo not shown) [Compound 609] next?
**Result** 10 to 100 µM

**Query** Can you check COc1cc(C(=O)NCC(F)(c2ccc(OC)c(-c3ccc(F)c(Cl)c3)n2)C(F)(F)F)ccc1OC1CCNC1=O (stereo not shown) [Compound 344] next?
**Result** 10 to 100 µM

**Query** Can you check COc1cc(C(=O)NCC(N)(c2cc(C(C)(C)N)cc(-c3ccc(F)c(Cl)c3)n2)C(F)(F)F)ccc1OC1CC1 (stereo not shown) [Compound 504] next?
**Result** 10 to 100 µM

**Query** Can you check COc1ccc(C(=O)NCC(O)c2nc(-c3csc4c(F)cccc34)n3ccccc23)cc1OC (stereo not shown) [Compound 113] next?
**Result** 10 to 100 µM

**Query** Can you check COc1cc(C(=O)NCC(O)(c2ccc(OC)c(-c3ccc(F)c(Cl)c3)n2)C2CC2)ccc1CCO (stereo not shown) [Compound 433] next?
**Result** 10 to 100 µM

**Query** Can you check COc1cc(C(=O)NCC(O)(c2cc(C(C)(C)N)cc(-c3ccc(F)c(Cl)c3)n2)C(F)(F)F)ccc1OCC(N)=O (stereo not shown) [Compound 322] next?
**Result** 10 to 100 µM

**Query** Can you check COc1cc(C(=O)OCC(O)(CN)c2ccc(OC)c(-c3ccc(F)c(Cl)c3)n2)ccc1OC1CC1 (stereo not shown) [Compound 383] next?
**Result** 10 to 100 µM

**Query** Can you check COc1cc(C(=O)NCC(O)(c2cc(C(C)(C)N)cc(-c3ccc(F)c(Cl)c3)n2)C(F)(F)F)ccc1OCCOC(=O)C(C)C (stereo not shown) [Compound 490] next?
**Result** 10 to 100 µM

**Query** Can you check COc1cc(C(=O)NCC(C)(O)c2ccc(OC)c(-c3ccc(F)c(Br)c3)n2)ccc1OCCF (racemic) [Compound 118] next?
**Result** 10 to 100 µM

**Query** Can you check COc1cc(C(=O)NCC2(c3ccc(OC)c(-c4ccc(F)c(Cl)c4)n3)CNC(=O)O2)ccc1OCCO (stereo not shown) [Compound 180] next?
**Result** > 100 µM

**Query** Can you check COc1cc(C(=O)NCC(=O)c2cc3c(c(-c4ccc(F)c(Cl)c4)n2)OCC3)ccc1OCCF [Compound 135] next?
**Result** > 100 µM

**Query** Can you check COc1cc(C(=O)NC[C@@](O)(c2cc3c(c(-c4ccc(F)cc4)n2)OCC3(N)CO)C(F)(F)F)ccc1OC1CC1 (stereo partly shown) [Compound 653] next?
**Result** > 100 µM

**Query** Can you check CNC(C)(C)c1cc(-c2ccc(F)c(Cl)c2)nc(C(O)(CNC(=O)c2ccc(OCCO)c(OC)c2)C(F)(F)F)c1 (stereo not shown) [Compound 491] next?
**Result** 10 to 100 µM
